TARGET_DESC: TLR7 (Homo sapiens)
Sequence (Q9NYK1 27-1049): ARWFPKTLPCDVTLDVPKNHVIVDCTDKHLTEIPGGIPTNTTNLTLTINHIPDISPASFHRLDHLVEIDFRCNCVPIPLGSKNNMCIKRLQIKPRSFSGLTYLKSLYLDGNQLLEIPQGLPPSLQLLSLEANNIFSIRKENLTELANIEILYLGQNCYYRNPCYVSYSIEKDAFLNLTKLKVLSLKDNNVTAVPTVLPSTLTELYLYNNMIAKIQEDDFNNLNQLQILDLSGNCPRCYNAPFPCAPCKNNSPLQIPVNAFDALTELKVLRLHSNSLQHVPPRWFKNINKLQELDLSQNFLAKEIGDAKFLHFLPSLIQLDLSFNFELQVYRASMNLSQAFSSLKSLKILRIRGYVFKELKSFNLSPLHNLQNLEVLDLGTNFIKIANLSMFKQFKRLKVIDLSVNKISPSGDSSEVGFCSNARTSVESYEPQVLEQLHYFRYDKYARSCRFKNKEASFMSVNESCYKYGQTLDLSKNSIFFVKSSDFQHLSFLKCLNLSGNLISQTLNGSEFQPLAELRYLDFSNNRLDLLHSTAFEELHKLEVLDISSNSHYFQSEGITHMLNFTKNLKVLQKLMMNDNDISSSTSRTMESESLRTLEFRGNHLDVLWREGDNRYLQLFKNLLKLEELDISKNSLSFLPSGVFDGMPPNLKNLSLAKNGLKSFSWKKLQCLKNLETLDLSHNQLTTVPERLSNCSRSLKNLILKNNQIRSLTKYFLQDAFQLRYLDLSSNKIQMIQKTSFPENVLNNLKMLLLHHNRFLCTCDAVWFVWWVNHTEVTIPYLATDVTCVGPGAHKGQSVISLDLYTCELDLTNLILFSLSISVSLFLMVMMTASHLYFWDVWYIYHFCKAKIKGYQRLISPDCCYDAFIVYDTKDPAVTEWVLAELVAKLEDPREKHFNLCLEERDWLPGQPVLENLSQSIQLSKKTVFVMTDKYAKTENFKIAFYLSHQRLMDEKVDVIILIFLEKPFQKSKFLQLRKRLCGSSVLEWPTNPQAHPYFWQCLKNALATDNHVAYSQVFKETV
RUN_DESCRIPTION: Human TLR7 reporter gene agonistic activity assay
Format: cell-based
Set-up: host or cells: HEK293 (TLR7/NF-κB/SEAPorter)
CONDITION: compound 1 nM (as headed)
MEASURED_METRIC: activation of human TLR7, reporter signal
Output: the number by itself.

Guide cases for activation of human TLR7, reporter signal, answers given:
| COMPOUND | QUANTITATIVE_RESULT |
| --- | --- |
| CCOc1nc(N)c2nc(-c3cncc(F)c3)n(Cc3ccc(CN4C[C@@H]5C[C@H]4CN5C)cc3)c2n1 [Cpd-6] | -0.0641 |
| CCOc1nc(C)c2nc(-c3cncc(F)c3)n(Cc3ccc(CN4C[C@@H]5C[C@H]4CN5C)cc3)c2n1 [Cpd-7] | -0.0578 |
| CCCCOc1nc(N)c2nc(-c3cccnc3)n(Cc3ccccc3)c2n1 [Cpd-5] | -0.05725 |

In the following, a different compound is considered.
[in] Name the reported activation of human TLR7, reporter signal value associated with the compound CCOCc1nc2c(N)nc3ccccc3c2n1CC(C)(C)O [R848, reference compound]
[out] 3.25

====

TARGET_DESC: human TLR9 (Homo sapiens)
Construct: host or cells: HEK293 (TLR9/NF-κB/SEAPorter)
RUN_DESCRIPTION: Human TLR9 reporter gene inhibitory activity assay (NF-κB/SEAP HEK293)
Type: cell-based
CONDITION: compound 1 nM (as headed); CpG2006 500 nM
MEASURED_METRIC: human TLR9 activity, reporter signal

Some molecules with recorded human TLR9 activity, reporter signal:
| MOLECULE | TARGET_DESC | RESULT |
| --- | --- | --- |
| CCOc1nc(C)c2nc(-c3cncc(F)c3)n(Cc3ccc(CN4C[C@@H]5C[C@H]4CN5C)cc3)c2n1 | human TLR9 (Homo sapiens) | 0.3655 |
| CCN(CCO)CCCC(C)Nc1ccnc2cc(Cl)ccc12 (stereo not shown) [HCQ, hydroxychloroquine, reference compound] | human TLR9 (Homo sapiens) | 0.0758 |
| CCCCOc1nc(N)c2nc(-c3cccnc3)n(Cc3ccccc3)c2n1 | human TLR9 (Homo sapiens) | 0.3613 |

Continue with the molecule presented below.
[in] Given CCOc1nc(N)c2nc(-c3cncc(F)c3)n(Cc3ccc(CN4C[C@@H]5C[C@H]4CN5C)cc3)c2n1 , state its recorded human TLR9 activity, reporter signal.
[out] 0.3752

====

TARGET_DESC: human TLR9 (Homo sapiens, UniProt Q9NR96)
Construct: host or cells: HEK293 (TLR9/NF-κB/SEAPorter)
Sequence (Q9NR96 26-1032): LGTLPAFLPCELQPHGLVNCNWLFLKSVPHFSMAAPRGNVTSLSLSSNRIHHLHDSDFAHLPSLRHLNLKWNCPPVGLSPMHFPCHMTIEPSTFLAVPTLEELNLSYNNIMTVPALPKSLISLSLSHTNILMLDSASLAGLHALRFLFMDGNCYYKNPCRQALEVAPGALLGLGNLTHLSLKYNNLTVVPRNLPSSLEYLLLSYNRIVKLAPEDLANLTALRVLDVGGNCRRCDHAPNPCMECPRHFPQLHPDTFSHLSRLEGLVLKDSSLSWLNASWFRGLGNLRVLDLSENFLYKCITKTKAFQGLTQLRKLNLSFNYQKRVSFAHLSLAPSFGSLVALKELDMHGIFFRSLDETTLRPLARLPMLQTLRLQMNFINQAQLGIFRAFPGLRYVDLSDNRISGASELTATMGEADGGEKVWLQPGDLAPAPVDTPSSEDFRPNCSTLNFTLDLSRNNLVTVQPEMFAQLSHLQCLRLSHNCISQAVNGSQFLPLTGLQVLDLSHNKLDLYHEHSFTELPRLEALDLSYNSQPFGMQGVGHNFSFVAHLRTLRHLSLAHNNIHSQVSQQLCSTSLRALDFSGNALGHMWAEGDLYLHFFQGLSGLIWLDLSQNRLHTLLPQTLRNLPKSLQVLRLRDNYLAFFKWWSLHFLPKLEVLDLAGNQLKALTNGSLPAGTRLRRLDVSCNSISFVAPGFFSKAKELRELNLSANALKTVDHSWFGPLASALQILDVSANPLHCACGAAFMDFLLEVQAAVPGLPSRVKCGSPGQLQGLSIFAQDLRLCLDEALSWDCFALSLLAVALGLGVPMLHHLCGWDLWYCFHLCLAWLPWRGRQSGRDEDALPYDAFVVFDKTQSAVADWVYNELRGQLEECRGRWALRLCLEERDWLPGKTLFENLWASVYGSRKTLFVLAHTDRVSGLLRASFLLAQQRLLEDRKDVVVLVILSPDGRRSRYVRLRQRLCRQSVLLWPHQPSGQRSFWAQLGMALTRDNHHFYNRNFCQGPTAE
RUN_DESCRIPTION: Human TLR9 reporter gene inhibitory activity assay (NF-κB/SEAP HEK293)
Format: cell-based
CONDITION: compound 0.03 nM (as headed); CpG2006 500 nM
# human TLR9 activity, reporter signal listing for each entry below
Just the number.

Reference set (3 entries):
| COMPOUND | TARGET_DESC | human TLR9 activity, reporter signal |
| --- | --- | --- |
| CCOc1nc(C)c2nc(-c3cncc(F)c3)n(Cc3ccc(CN4C[C@@H]5C[C@H]4CN5C)cc3)c2n1 [Cpd-7] | human TLR9 (Homo sapiens, UniProt Q9NR96) | 0.4048 |
| CCCCOc1nc(N)c2nc(-c3cccnc3)n(Cc3ccccc3)c2n1 [Cpd-5] | human TLR9 (Homo sapiens, UniProt Q9NR96) | 0.4224 |
| CCOc1nc(N)c2nc(-c3cncc(F)c3)n(Cc3ccc(CN4C[C@@H]5C[C@H]4CN5C)cc3)c2n1 [Cpd-6] | human TLR9 (Homo sapiens, UniProt Q9NR96) | 0.3826 |

[in] Can you look up the measured human TLR9 activity, reporter signal of CCN(CCO)CCCC(C)Nc1ccnc2cc(Cl)ccc12 (stereo not shown) [HCQ, hydroxychloroquine, reference compound] for me?
[out] 0.3271

Where do these numbers come from? They come from paper PMC7562955.
